assay: CHOP2 Reporter Counterscreen Assay for Inhibitors of Ubiquitin-specific Protease USP2a; settings: purified enterokinase, fluorogenic substrate, 485/531 nm; series mostly up to 38.3 µM;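 note: activated enterokinase alone at 50 pM in a cell-free format rather than USP2a or CHOP2; nearly all actives have a fitted effect of over 55% in size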
Inconclusive results are not listed. Active and inactive are the calls of the source. Calls come from the whole dose curve; as a rule, active = well fitted inhibition curve with a large enough effect; inconclusive = small, poorly fitted or top-dose-only effect; inactive = flat fitted curve, though single readings scatter.
Outcomes: active, inactive

>>> class_label("Cc1c2c(=O)n(-c3nc4ccccc4s3)nc-2cc(O)n1Cc1ccccc1")
"active"
>>> class_label("CC(C)c1ccc(CCNC(=O)c2ccc([N+](=O)[O-])cc2)cc1")
"inactive"
>>> class_label("CCC(C)c1ccc(O)c(N)c1 (stereo not given)")
"inactive"
>>> class_label("COc1ccc(OC)c(Nc2ccc(Nc3cc(OC)ccc3OC)nn2)c1")
"inactive"
>>> class_label("Cc1nc(N(C)C)c2sc(=S)n(C)c2n1")
"inactive"
>>> class_label("O=C(Nc1cccc(S(=O)(=O)NC2=NCCC2)c1)c1cc(-c2ccco2)nc2ccccc12")
"active"
>>> class_label("C=C(C)COc1ccc(-c2[nH]ncc2Oc2ccccc2OCC)c(O)c1")
"inactive"
>>> class_label("CC(C)(C)[C@H]1COC(=O)[C@@H](Cc2ccc(F)cc2)C/C=C\\C[C@@H](CC(=O)N[C@@H](CO)Cc2ccccc2)C(=O)N1")
"inactive"
>>> class_label("CCOc1ccc(NC(=O)c2ccc(NC(=O)COC(=O)c3ccc(NC(=O)CC#N)cc3)cc2)cc1")
"active"
>>> class_label("O=C(COc1ccccc1)NCCSc1ccccc1")
"inactive"

---

test: CHOP2 Reporter Counterscreen Assay for Inhibitors of Ubiquitin-specific Protease USP2a; conditions: purified enterokinase, fluorogenic substrate, 485/531 nm; series mostly up to 38.3 µM;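 note: activated enterokinase alone at 50 pM in a cell-free format rather than USP2a or CHOP2; nearly all actives have a fitted effect of over 55% in size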
Records with an inconclusive call do not appear. Active and inactive are the calls of the source. The call rests on the fitted dose curve; in most records, active means well fitted inhibition curve with a large enough effect; inconclusive means small, poorly fitted or top-dose-only effect; inactive means flat fitted curve, though single readings scatter.
Outcomes: True for active, False for inactive

>>> class_label("O=C(Nc1cnn(Cc2ccccc2)c1)c1nc2ncccn2n1")
"False"
>>> class_label("COc1ccc(Cl)cc1C(=O)Nc1cccc(-c2ccc3nncn3n2)c1")
"True"
>>> class_label("CCOC(=O)COc1c(OC)cc(Cl)cc1C1Nc2ccccc2C(=O)N1c1ccccc1 (stereo unspecified)")
"False"
>>> class_label("Oc1ccc(/C=N/NC(=S)N/N=C/c2ccc(O)cc2)cc1")
"False"
>>> class_label("COc1ccc(NC(=O)CSc2nnc(-c3ccccc3Cl)n2Cc2ccco2)c(OC)c1")
"False"
>>> class_label("COc1ccc(C(=O)C[N+]2(C)CCOCC2)cc1")
"False"

---

assay: CHOP2 Reporter Counterscreen Assay for Inhibitors of Ubiquitin-specific Protease USP2a; conditions: purified enterokinase, fluorogenic substrate, 485/531 nm; series mostly up to 38.3 µM;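 note: activated enterokinase alone at 50 pM in a cell-free format rather than USP2a or CHOP2; nearly all actives have a fitted effect of over 55% in size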; note: potency is the fitted concentration of half-maximal effect
Results filed as inconclusive are left out. Activity calls are given as the source filed them. The call rests on the fitted dose curve; in most records, active means well fitted inhibition curve with a large enough effect; inconclusive means small, poorly fitted or top-dose-only effect; inactive means flat fitted curve, though single readings scatter.
Attribute Measured: Potency

>>> data_value("CCOc1ccc2[nH]c(=O)c(CN(CCc3ccccc3)C(=O)c3cnccn3)cc2c1")
"inactive"
>>> data_value("O=C(O)c1cccc(S(=O)(=O)NNc2ccccc2C(F)(F)F)c1")
"inactive"
>>> data_value("Cc1ccc2oc(=O)c3cnn(CC(=O)NCCCOC(C)C)c3c2c1")
"inactive"
>>> data_value("Cn1c(C(=O)N2CCN(Cc3ccc4c(c3)OCO4)CC2)cc2sccc21")
"inactive"
>>> data_value("CCn1c2ccccc2c2nc3ccccc3nc21")
"inactive"
>>> data_value("CCCCOC1(c2ccccc2)NC(=S)NN=C1c1ccccc1 (stereo not drawn)")
"inactive"
>>> data_value("O=C(CC1Oc2ccccc2NC1=O)NCc1ccc(Cl)cc1 (stereo not drawn)")
"inactive"
>>> data_value("COc1ccc(S(=O)(=O)N2CCCCC2)cc1NC(=O)Cc1c[nH]c2ccccc12")
"inactive"
>>> data_value("OCCN(Cc1ccccc1)c1ncnc2sccc12")
"inactive"
>>> data_value("COC(=O)c1ccccc1NC(=O)CSc1nc(O)cc(=O)n1C1CCCC1")
"inactive"
>>> data_value("COc1ccc(Cc2nnc(NC(=O)Cc3cccs3)s2)cc1")
"1.78 µM (active)"
>>> data_value("CC(C)c1ccc(Nc2nnc(SCC(=O)c3nnc(-c4ccccc4)o3)s2)cc1")
"5.01 µM (active)"
>>> data_value("COc1ccccc1-n1c(SCC(=O)Nc2ccc(C)cc2)nc(O)cc1=O")
"inactive"
>>> data_value("O=C(Nc1ccc(Nc2ccncc2)cc1)c1ccc(Nc2ccnc3ccc([N+](=O)[O-])cc23)cc1")
"3.55 µM (active)"
>>> data_value("CCOC(=O)c1sc(NC(=O)Nc2ccccc2)cc1C")
"inactive"
>>> data_value("O=C(c1ccc([N+](=O)[O-])cc1)N(Cc1ccc(Cl)cc1)N1C(=O)CCCC1=O")
"inactive"
>>> data_value("O=C(OCC(=O)N1CCCCC1)c1cc2ccccc2cc1O")
"inactive"
>>> data_value("COc1ccc(CNS(=O)(=O)c2ccc(S(=O)(=O)N3CCCCC3)cc2)cc1")
"inactive"
>>> data_value("O=C(C[n+]1cccc(C(=O)N/N=C/c2ccc(Br)cc2)c1)c1ccccc1")
"inactive"
>>> data_value("O=C(O)C(Cc1ccccc1)N1C(=O)/C(=C/C=C/c2ccco2)SC1=S (stereo not drawn)")
"2.51 µM (active)"
>>> data_value("O=C(Nc1cccc(-c2nn[nH]n2)c1)c1ccc(Br)s1")
"3.98 µM (active)"
>>> data_value("CCOC(=O)C(C)Sc1nnc(Cn2c(=O)sc3ccccc32)n1-c1ccccc1 (stereo not drawn)")
"inactive"
>>> data_value("CC[n+]1c(/C=C/N(C)c2ccccc2)n(-c2ccccc2)c2ccc(-c3nc4ccccc4s3)cc21")
"10 µM (active)"
>>> data_value("c1ccc(-c2nc3nc4ccccc4nc3n2Cc2ccco2)cc1")
"inactive"
>>> data_value("COc1cc(C2C(C#N)=C(N)Oc3c2ccc2ccccc32)ccc1OCC(=O)Nc1cccc(C)c1 (stereo not drawn)")
"inactive"
>>> data_value("CC1CCCC(N2CCN(C(=O)c3cccc(F)c3)CC2)C1 (stereo not drawn)")
"inactive"
>>> data_value("Cc1c(NC(=O)C2CCCN2S(=O)(=O)c2ccc(Cl)cc2)c(=O)n(-c2ccccc2)n1C (stereo not drawn)")
"inactive"
>>> data_value("COc1ccccc1-c1nnc(SCC(=O)Nc2nc(-c3ccccc3)cs2)n1C")
"inactive"
>>> data_value("CCOc1cc(/C=C/c2nc3cc(C)c(C)cc3s2)ccc1OCC(=O)N1CCOCC1")
"inactive"
>>> data_value("Cc1ccc(Cn2nnc3c(=O)[nH]c(C4CCN(S(=O)(=O)Cc5ccccc5)CC4)nc32)cc1")
"inactive"
>>> data_value("CSCCC(NC(=O)c1cc(C(C)(C)C)oc1C)C(=O)O (stereo not drawn)")
"inactive"
>>> data_value("COc1ccc(CCNC(=O)Cc2cc(=O)[nH]c(=O)[nH]2)cc1OC")
"inactive"
>>> data_value("C=CCn1c(O)c(C(CC)=NCCN2CCOCC2)c(=O)[nH]c1=O")
"inactive"
>>> data_value("CC(C)(C)NC(=O)C(c1ccco1)N(C(=O)c1ccc(CN2CCOCC2)o1)c1ccccc1 (stereo not drawn)")
"inactive"
>>> data_value("Cc1n[nH]c(C)c1S(=O)(=O)N1CCCC(C(=O)Nc2nccs2)C1 (stereo not drawn)")
"inactive"
>>> data_value("O=C(CCN1C(=O)/C(=C\\c2ccco2)SC1=S)Nc1ccc(C(=O)O)c(O)c1")
"10 µM (active)"
>>> data_value("c1ccc(Nc2c3c(nc4ncnn24)CCC3)cc1")
"inactive"
>>> data_value("Nc1c(C(=O)Nc2ccc(Cl)cc2)oc2ccccc12")
"inactive"
>>> data_value("O=C(CCc1nc(-c2ccccc2F)no1)NC1CCCCCC1")
"inactive"
>>> data_value("CC1CCCCC1NC(=O)CSCC(=O)O (stereo not drawn)")
"inactive"
>>> data_value("Cc1ccc(C(=O)Nc2nnc(CC(=O)N/N=C/c3ccc(O)c(O)c3)s2)cc1")
"2.82 µM (active)"
>>> data_value("O=C(c1ccccc1)N1CCN(C(=O)N2CCCCC2)CC1")
"inactive"
>>> data_value("S=c1[nH]nc(-c2cc(-c3ccco3)[nH]n2)n1-c1cccc2ccccc12")
"inactive"

---

assay: CHOP2 Reporter Counterscreen Assay for Inhibitors of Ubiquitin-specific Protease USP2a; conditions: purified enterokinase, fluorogenic substrate, 485/531 nm; series mostly up to 38.3 µM;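 note: activated enterokinase alone at 50 pM in a cell-free format rather than USP2a or CHOP2; nearly all actives have a fitted effect of over 55% in size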
Records with an inconclusive call do not appear. Activity calls are given as the source filed them. Calls follow the shape of the dose curve; as a rule, active = well fitted inhibition curve with a large enough effect; inconclusive = small, poorly fitted or top-dose-only effect; inactive = flat fitted curve, though single readings scatter.
Outcomes: Yes (active), No (inactive)

>>> class_label("COc1ccc(-n2c(=S)[nH]c3cc(C(=O)NCc4ccc(F)cc4)ccc3c2=O)c(OC)c1")
"No"
>>> class_label("Cc1cc(C)n2cc(CSc3nnnn3-c3ccccc3C)nc2n1")
"No"
>>> class_label("COc1cccc(NC(=O)c2ccccc2-c2nc(-c3cccc(C)c3)no2)c1")
"No"
>>> class_label("CCn1nnnc1SCC(=O)Nc1cccc(C)n1")
"No"
>>> class_label("O=C1c2ccccc2C(=O)N1CCC1=CCCCC1")
"No"
>>> class_label("O=C(COC(=O)c1ccc(NS(=O)(=O)c2cccs2)cc1)Nc1nc2c(F)c(F)c(F)cc2s1")
"Yes"
>>> class_label("Cc1cc(C)cc(NC(=O)CSc2nc3c(c(=O)[nH]2)CN(Cc2ccc(F)cc2)CC3)c1")
"No"
>>> class_label("Cc1ccc(C=Nc2ccccc2C(N)=O)cc1")
"No"
>>> class_label("Cc1noc(/C=C/c2ccco2)c1S(=O)(=O)N1CCC(C(=O)N2CCc3ccccc3C2)CC1")
"No"
>>> class_label("O=C(Nc1nc(-c2ccco2)c(-c2ccco2)s1)c1ccc(F)cc1F")
"Yes"
>>> class_label("Cc1c(N=C/C=C2\\N(C)c3ccccc3C2(C)C)c(=O)n(-c2ccccc2)n1C")
"No"
>>> class_label("CCOc1ccc(NC(=O)c2cccc(-n3cnnn3)c2)cc1")
"No"
>>> class_label("O=C(CSc1nc(N2CCCCC2)nc(N2CCCCC2)n1)N1CCN(c2ccccc2)CC1")
"No"
>>> class_label("CC(C)C(=O)N=c1sc2cc(F)cc(F)c2n1C")
"No"
>>> class_label("COc1cccc(-c2csc3nnc(SCC(=O)NCc4cccs4)n23)c1")
"No"
>>> class_label("Cc1noc(NS(=O)(=O)c2ccc(N/C=C\\C(=O)c3cccc4ccccc34)cc2)c1C")
"No"
>>> class_label("CCCCCCCCCCOC(=O)Cn1c(COc2ccc(OC)cc2)[n+](C)c2ccccc21")
"Yes"
>>> class_label("Cc1ccc(S(=O)(=O)N2[C@@H](c3ccccc3F)C(C(=O)O)=CC[C@H]2c2ccc(Cl)c(Cl)c2)cc1")
"No"
>>> class_label("Cc1nn(CC(=O)Nc2cccc(S(N)(=O)=O)c2)c(C)c1[N+](=O)[O-]")
"No"
>>> class_label("CC(C)(C)C1CCC(=NNC(=O)CN(c2ccccc2)S(C)(=O)=O)CC1 (centres undefined)")
"No"
>>> class_label("CCC(C(=O)Nc1nnc(-c2ccco2)s1)c1ccccc1 (centres undefined)")
"No"
>>> class_label("CC1=C(C(=O)OC(C)C)C(C)C(C(=O)OC(C)C)=C(C)N1")
"No"
>>> class_label("O=C(Nc1ccc(Oc2ccc(Cl)cc2)cc1)c1ncn[nH]1")
"No"
>>> class_label("CCn1nc(C(=O)N[C@@H](CCSC)c2nc3ccccc3[nH]2)c2ccccc2c1=O")
"No"
>>> class_label("CC(C)(C)C(=O)Nc1c2c(nc3c1CCC3)CCCC2")
"No"
>>> class_label("Cc1noc(C)c1NC(=O)Nc1ccc2c(c1)C(=O)N([C@H](C)CO)C[C@H](C)[C@@H](CN(C)S(=O)(=O)c1ccccc1)O2")
"No"
>>> class_label("Nc1ccc2nc(-c3ccc(N)c(Cl)c3)[nH]c2c1")
"No"
>>> class_label("COc1ccc(N(C(=O)C(C)C)S(=O)(=O)c2ccc(Cl)cc2)cc1")
"No"
>>> class_label("CN(C)C=Nc1ncc2c3ccccc3n(CCN(C)C)c2c1C#N")
"No"
>>> class_label("Cc1cccc(N=C2NC(=O)/C(=C/C=C/c3ccco3)S2)c1")
"Yes"
>>> class_label("COc1ccc(OCC(=O)Nc2ccccc2OC)cc1")
"No"
>>> class_label("CCOC(=O)Nc1nnc(CCc2ccccc2)s1")
"No"
>>> class_label("CCOc1cc(N2CCOCC2)c(OCC)cc1NC(=O)Cc1cn2ccsc2n1")
"No"
>>> class_label("O=C1S/C(=C\\C=C\\c2ccco2)C(=O)N1c1ccc(O)cc1")
"Yes"
>>> class_label("CC(=O)Nc1ccc(NC(=O)C2CCCN(S(=O)(=O)c3ccc(Cl)cc3)C2)cc1 (centres undefined)")
"No"
>>> class_label("COc1cc(/C=C/c2cc[n+](C)cc2)ccc1OCC(=O)Nc1ccc(Cl)c(Cl)c1")
"Yes"
>>> class_label("COc1ccc2cc(CN(C(=O)Nc3ccccc3)C3CCCC3)c(=O)[nH]c2c1")
"No"
>>> class_label("COc1ccc2[nH]c(=O)c(CN(Cc3ccco3)Cc3nnnn3Cc3ccccc3)cc2c1")
"No"
>>> class_label("CC(=O)C1=C(O)C(=O)N(c2nnn(C)n2)C1c1cccs1 (centres undefined)")
"No"
